target: human alpha1 nicotinic acetylcholine (nACh) receptor (Homo sapiens, UniProt P02708+Q07001); test: Nicotinic acetylcholine receptor antagonism assay, IONFlux automated patch clamp (Example 203); type: cell-based; details: maximum percentage antagonism at maximum concentration tested 10 μM; read-out: Maximum Response (%)
Sequence (P02708 21-457): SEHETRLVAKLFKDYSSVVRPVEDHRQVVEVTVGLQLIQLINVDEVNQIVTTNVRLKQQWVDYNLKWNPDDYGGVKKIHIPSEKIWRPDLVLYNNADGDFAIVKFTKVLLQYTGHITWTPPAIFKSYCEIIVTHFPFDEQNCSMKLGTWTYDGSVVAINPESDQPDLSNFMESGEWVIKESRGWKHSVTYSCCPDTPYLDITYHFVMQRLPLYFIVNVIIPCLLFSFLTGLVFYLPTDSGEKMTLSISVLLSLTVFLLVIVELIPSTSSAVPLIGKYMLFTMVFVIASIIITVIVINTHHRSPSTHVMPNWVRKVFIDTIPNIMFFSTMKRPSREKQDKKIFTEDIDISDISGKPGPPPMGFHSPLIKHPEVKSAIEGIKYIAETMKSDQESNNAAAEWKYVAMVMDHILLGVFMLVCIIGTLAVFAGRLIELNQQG
Sequence (P11230 24-501 partner): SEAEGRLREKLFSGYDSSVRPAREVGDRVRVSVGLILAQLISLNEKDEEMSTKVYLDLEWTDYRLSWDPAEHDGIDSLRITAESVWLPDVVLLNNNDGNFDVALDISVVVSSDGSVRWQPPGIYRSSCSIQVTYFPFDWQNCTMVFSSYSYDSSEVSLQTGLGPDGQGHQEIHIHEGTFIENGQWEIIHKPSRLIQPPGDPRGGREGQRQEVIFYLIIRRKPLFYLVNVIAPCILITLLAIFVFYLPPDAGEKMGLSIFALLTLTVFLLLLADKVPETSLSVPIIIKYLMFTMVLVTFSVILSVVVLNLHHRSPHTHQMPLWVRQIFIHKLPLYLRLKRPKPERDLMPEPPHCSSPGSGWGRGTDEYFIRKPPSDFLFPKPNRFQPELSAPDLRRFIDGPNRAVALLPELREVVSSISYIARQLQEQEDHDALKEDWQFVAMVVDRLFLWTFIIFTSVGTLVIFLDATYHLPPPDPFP
Sequence (Q07001 22-517): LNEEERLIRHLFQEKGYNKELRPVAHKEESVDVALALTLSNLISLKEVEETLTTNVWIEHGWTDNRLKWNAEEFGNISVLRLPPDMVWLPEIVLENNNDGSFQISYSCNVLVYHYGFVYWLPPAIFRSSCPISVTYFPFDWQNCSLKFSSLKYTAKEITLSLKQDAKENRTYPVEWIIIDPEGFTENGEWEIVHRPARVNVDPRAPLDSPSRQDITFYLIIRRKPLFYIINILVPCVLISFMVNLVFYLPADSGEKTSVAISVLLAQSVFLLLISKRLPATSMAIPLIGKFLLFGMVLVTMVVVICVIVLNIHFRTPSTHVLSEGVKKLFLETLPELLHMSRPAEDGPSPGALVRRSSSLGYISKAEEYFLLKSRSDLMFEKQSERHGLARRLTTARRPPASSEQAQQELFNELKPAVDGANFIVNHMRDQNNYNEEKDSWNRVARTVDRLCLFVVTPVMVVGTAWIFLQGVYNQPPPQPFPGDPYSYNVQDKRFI
quantityName: Emax at 10 µM

1) CC(C)N(C)[C@@H]1CC[C@H](N2CC[C@H](Nc3ncnc4ccc(C(F)(F)F)cc34)C2=O)[C@H](NC(=O)[C@H]2CC[C@@H](C3CCN(C(=O)CCOCCOCCNC(=O)[C@H]4CC(=O)N(C)[C@@H]4c4cccnc4)CC3)CC2)C1 : 32.7%
2) CC(C)N(C)[C@@H]1CC[C@H](N2CC[C@H](Nc3ncnc4ccc(C(F)(F)F)cc34)C2=O)[C@H](NC(=O)[C@H]2CC[C@H](NC(=O)CCOCCOCCOCCNC(=O)[C@H]3CC(=O)N(C)[C@@H]3c3cccnc3)CC2)C1 : 5.4%
3) CC(C)N(C)[C@@H]1CCC(N2CC[C@H](Nc3ncnc4ccc(C(F)(F)F)cc34)C2=O)[C@H](NC(=O)CCOCCOCCOCCOCCOCCNC(=O)[C@H]2CC(=O)N(C)[C@@H]2c2cccnc2)C1 (stereo partly shown) : 24.7%
4) CC(C)N(C)[C@@H]1CC[C@H](N2CC[C@H](Nc3ncnc4ccc(C(F)(F)F)cc34)C2=O)[C@H](NC(=O)[C@H]2CC[C@H](C3CCN(C(=O)CCOCCOCCNC(=O)[C@H]4CC(=O)N(C)[C@@H]4c4cccnc4)CC3)CC2)C1 : 4.1%

* * *

molecular target: human alpha1 nicotinic acetylcholine (nACh) receptor (Homo sapiens, UniProt P02708+Q07001); assay: Nicotinic acetylcholine receptor antagonism assay, IONFlux automated patch clamp (Example 203); format: cell-based; settings: maximum percentage antagonism at maximum concentration tested 10 μM; read-out: Maximum Response (%)
quantityName: Emax at 10 µM (%)

1. CC(C)N(C)[C@@H]1CC[C@H](N2CC[C@H](Nc3ncnc4ccc(C(F)(F)F)cc34)C2=O)[C@H](NC(=O)c2ccc(C3CCN(CCOCCOCCNC(=O)[C@H]4CC(=O)N(C)[C@@H]4c4cccnc4)CC3)cn2)C1 : 67.1
2. CN1C(=O)C[C@H](C(=O)NCCOCCOCCOCCOCCOCCOCCC(=O)N[C@@H]2C[C@H](NC(C)(C)C)CC[C@@H]2N2CC[C@H](Nc3ncnc4ccc(C(F)(F)F)cc34)C2=O)[C@H]1c1cccnc1 : -2.2
3. CC(C)N(C)[C@@H]1CC[C@H](N2CC[C@H](Nc3ncnc4ccc(C(F)(F)F)cc34)C2=O)[C@H](NC(=O)c2ccc(N3CCC(C(=O)NCCOCCOCCNC(=O)[C@H]4CC(=O)N(C)[C@@H]4c4cccnc4)CC3)cc2)C1 : 16.8
4. CC(C)N(C)[C@@H]1CC[C@H](N2CC[C@H](Nc3ncnc4ccc(C(F)(F)F)cc34)C2=O)[C@H](NC(=O)CCCN2CCC3(CCN(CCCNC(=O)[C@H]4CC(=O)N(C)[C@@H]4c4cccnc4)CC3)CC2)C1 : 74

* * *

biological target: human alpha1 nicotinic acetylcholine (nACh) receptor (Homo sapiens, UniProt P02708+Q07001); test: Nicotinic acetylcholine receptor antagonism assay, IONFlux automated patch clamp (Example 203); type: cell-based; settings: maximum percentage antagonism at maximum concentration tested 10 μM; read-out: Maximum Response (%)
quantityName: Emax at 10 µM (%)

1. CC(C)N(C)[C@@H]1CC[C@H](N2CC[C@H](Nc3ncnc4ccc(C(F)(F)F)cc34)C2=O)[C@H](NC(=O)C2CCN(c3ccc(C(=O)NCCOCCOCCNC(=O)[C@H]4CC(=O)N(C)[C@@H]4c4cccnc4)cc3)CC2)C1 : 13.1
2. CC(C)N(C)[C@@H]1CC[C@H](N2CC[C@H](Nc3ncnc4ccc(C(F)(F)F)cc34)C2=O)[C@H](NC(=O)[C@H]2CC[C@H](c3ccc(C(=O)NCCOCCOCCNC(=O)[C@H]4CC(=O)N(C)[C@@H]4c4cccnc4)cc3)CC2)C1 : 18.2

* * *

pKd of Antibody for ARM Compound of Formula (I) for assorted molecules
target: Anti-cotinine antibody (SEQ ID NO: 11 / SEQ ID NO: 12, rabbit variable region with human IgG1 Fc domain); assay: Binding of anti-cotinine antibody to ARM compounds by SPR, Biacore T200, 37° C. (Example 202); conditions: pH 7.4, rabbit variable region/human IgG1 Fc antibody captured on protein A
quantityName: pKd of Antibody for ARM Compound of Formula (I)

1) CC(C)N(C)[C@@H]1CC[C@H](N2CC[C@H](Nc3ncnc4ccc(C(F)(F)F)cc34)C2=O)[C@H](NC(=O)[C@H]2CC[C@@H](NC(=O)CCCOC[C@H]3CC[C@@H](COCCNC(=O)[C@H]4CC(=O)N(C)[C@@H]4c4cccnc4)CC3)CC2)C1 [Example 61] : 9.558
2) CC(C)N(C)[C@@H]1CC[C@H](N2CC[C@H](Nc3ncnc4ccc(C(F)(F)F)cc34)C2=O)[C@H](NC(=O)[C@H]2CC[C@H](NC(=O)CCCO[C@H]3CC[C@@H](OCCNC(=O)[C@H]4CC(=O)N(C)[C@@H]4c4cccnc4)CC3)CC2)C1 [Example 4] : 9.526
3) CC(C)N(C)[C@@H]1CC[C@H](N2CC[C@H](Nc3ncnc4ccc(C(F)(F)F)cc34)C2=O)[C@H](NC(=O)CCOCCOCCNC(=O)COCCNC(=O)CCNC(=O)[C@H]2CC(=O)N(C)[C@@H]2c2cccnc2)C1 [Example 75] : 9.103
4) CC(C)N(C)[C@@H]1CC[C@H](N2CC[C@H](Nc3ncnc4ccc(C(F)(F)F)cc34)C2=O)[C@H](NC(=O)[C@H]2CC[C@H](C(=O)NCCCOCCCCOCCCNC(=O)[C@H]3CC(=O)N(C)[C@@H]3c3cccnc3)CC2)C1 [Example 194] : 9.5415
5) CC(C)N(C)[C@@H]1CC[C@H](N2CC[C@H](Nc3ncnc4ccc(C(F)(F)F)cc34)C2=O)[C@H](NC(=O)[C@H]2CC[C@H](NC(=O)CCCO[C@H]3CC[C@H](OCCNC(=O)[C@H]4CC(=O)N(C5CC5)[C@@H]4c4cccnc4)CC3)CC2)C1 [Example 13] : 10.511
6) CC(C)N(C)[C@@H]1CC[C@H](N2CC[C@H](Nc3ncnc4ccc(C(F)(F)F)cc34)C2=O)[C@H](NC(=O)[C@H]2CC[C@H](CNC(=O)CCCC(=O)NCCCOCCCNC(=O)[C@H]3CC(=O)N(C)[C@@H]3c3cccnc3)CC2)C1 [Example 20] : 8.8705
7) CC(C)N(C)[C@@H]1CC[C@H](N2CC[C@H](Nc3ncnc4ccc(C(F)(F)F)cc34)C2=O)[C@H](NC(=O)C2CCN(C(=O)CCOCCOCCOCCNC(=O)[C@H]3CC(=O)N(C)[C@@H]3c3cccnc3)CC2)C1 [Example 29] : 9.3345
8) CC(C)N(C)[C@@H]1CC[C@H](N2CC[C@H](Nc3ncnc4ccc(C(F)(F)F)cc34)C2=O)[C@H](NC(=O)CCOCCNC(=O)COCCNC(=O)COCCNC(=O)[C@H]2CC(=O)N(C)[C@@H]2c2cccnc2)C1 [Example 102] : 9.076
9) CC(C)N(C)[C@@H]1CC[C@H](N2CC[C@H](Nc3ncnc4ccc(C(F)(F)F)cc34)C2=O)[C@H](NC(=O)[C@H]2CC[C@@H](NC(=O)COCCNC(=O)COCCNC(=O)[C@H]3CC(=O)N(C)[C@@H]3c3cccnc3)CC2)C1 [Example 99] : 9.062
10) CC(C)N(C)[C@@H]1CC[C@H](N2CC[C@H](Nc3ncnc4ccc(C(F)(F)F)cc34)C2=O)[C@H](NC(=O)CCOCCNC(=O)COCCNC(=O)CCOCCNC(=O)[C@H]2CC(=O)N(C)[C@@H]2c2cccnc2)C1 [Example 163] : 9.07
11) CC(C)N(C)[C@@H]1CC[C@H](N2CC[C@H](Nc3ncnc4ccc(C(F)(F)F)cc34)C2=O)[C@H](NC(=O)[C@H]2CC[C@@H](NC(=O)CCCC(=O)NCCCOCCCNC(=O)[C@H]3CC(=O)N(C)[C@@H]3c3cccnc3)CC2)C1 [Example 18] : 9.0895
12) CC(C)N(C)[C@@H]1CC[C@H](N2CC[C@H](Nc3ncnc4ccc(C(F)(F)F)cc34)C2=O)[C@H](NC(=O)[C@H]2CC[C@@H](NC(=O)CCCO[C@H]3CC[C@H](OCCNC(=O)[C@H]4CC(=O)N(C)[C@@H]4c4cccnc4)CC3)CC2)C1 [Example 5] : 9.19
13) CC(C)N(C)[C@@H]1CC[C@H](N2CC[C@H](Nc3ncnc4ccc(C(F)(F)F)cc34)C2=O)[C@H](NC(=O)CCOCCNC(=O)[C@H]2CC[C@@H](NC(=O)CCOCCNC(=O)[C@H]3CC(=O)N(C)[C@@H]3c3cccnc3)CC2)C1 [Example 110] : 8.9085
14) CC(C)N(C)[C@@H]1CC[C@H](N2CC[C@H](Nc3ncnc4ccc(C(F)(F)F)cc34)C2=O)[C@H](NC(=O)[C@H]2C[C@H](NC(=O)CCOC[C@H]3CC[C@H](COCCNC(=O)[C@H]4CC(=O)N(C)[C@@H]4c4cccnc4)CC3)C2)C1 [Example 54] : 9.5515
15) CN1C(=O)C[C@H](C(=O)NCCO[C@H]2CC[C@@H](OCCCC(=O)N[C@H]3CC[C@H](C(=O)N[C@@H]4C[C@H](NC(C)(C)C)CC[C@@H]4N4CC[C@H](Nc5ncnc6ccc(C(F)(F)F)cc56)C4=O)CC3)CC2)[C@H]1c1cccnc1 [Example 2] : 9.4775
16) CC(C)N(C)[C@@H]1CC[C@H](N2CC[C@H](Nc3ncnc4ccc(C(F)(F)F)cc34)C2=O)[C@H](NC(=O)[C@H]2CC[C@@H](C3CCN(C(=O)CCOCCOCCNC(=O)[C@H]4CC(=O)N(C)[C@@H]4c4cccnc4)CC3)CC2)C1 [Example 72] : 9.8865
